Collected Kd values appear next to each entry.
Target: T1, soluble human GPNMB (recombinant extracellular domain) (human, UniProt Q14956 23-498)
T1 construct: also called huGPNMB; recombinant human GPNMB extracellular domain; not shown: C-terminal polyhistidine or Avi-His tag
T1 sequence: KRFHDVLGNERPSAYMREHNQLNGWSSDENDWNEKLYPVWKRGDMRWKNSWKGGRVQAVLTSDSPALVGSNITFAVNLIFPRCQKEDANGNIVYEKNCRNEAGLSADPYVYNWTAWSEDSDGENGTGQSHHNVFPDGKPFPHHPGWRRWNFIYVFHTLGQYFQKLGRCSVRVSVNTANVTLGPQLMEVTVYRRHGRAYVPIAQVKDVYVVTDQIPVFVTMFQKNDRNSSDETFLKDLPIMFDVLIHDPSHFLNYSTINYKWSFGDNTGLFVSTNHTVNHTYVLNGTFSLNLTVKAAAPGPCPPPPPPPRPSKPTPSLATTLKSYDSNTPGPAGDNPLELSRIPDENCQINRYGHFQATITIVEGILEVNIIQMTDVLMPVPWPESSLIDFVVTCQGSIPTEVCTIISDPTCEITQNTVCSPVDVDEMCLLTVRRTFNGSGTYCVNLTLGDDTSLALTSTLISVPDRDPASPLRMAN
Assay: SPR Biacore, IgG captured
property: Kd (nM)

- anti-GPNMB antibody GPN-91 (antibody, V domains shown) VH: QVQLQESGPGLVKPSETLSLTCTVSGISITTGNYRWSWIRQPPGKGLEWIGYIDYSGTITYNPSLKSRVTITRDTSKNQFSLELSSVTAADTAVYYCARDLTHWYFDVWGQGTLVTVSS VL: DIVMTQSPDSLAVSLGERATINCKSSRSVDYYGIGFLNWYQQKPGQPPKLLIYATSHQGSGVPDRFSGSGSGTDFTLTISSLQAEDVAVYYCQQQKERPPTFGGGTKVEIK: 3
- anti-GPNMB antibody GPN-85 (antibody, V domains shown) VH: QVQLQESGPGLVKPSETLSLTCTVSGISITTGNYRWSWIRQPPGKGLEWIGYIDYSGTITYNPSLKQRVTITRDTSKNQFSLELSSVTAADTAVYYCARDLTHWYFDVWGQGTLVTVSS VL: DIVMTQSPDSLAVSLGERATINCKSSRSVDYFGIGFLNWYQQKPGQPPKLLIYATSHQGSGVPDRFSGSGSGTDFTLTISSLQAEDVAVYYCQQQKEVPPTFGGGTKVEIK: 1
- anti-GPNMB antibody GPN-82 (antibody, V domains shown) VH: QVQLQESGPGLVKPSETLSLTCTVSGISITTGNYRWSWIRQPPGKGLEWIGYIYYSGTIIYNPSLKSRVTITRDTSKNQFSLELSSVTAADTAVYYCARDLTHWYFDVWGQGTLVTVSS VL: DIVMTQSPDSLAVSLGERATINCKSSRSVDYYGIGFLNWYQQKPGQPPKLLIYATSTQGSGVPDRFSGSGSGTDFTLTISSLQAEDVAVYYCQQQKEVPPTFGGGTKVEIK: 11.9
